Test: reversal of MRP1-mediated doxorubicin resistance, pilot screen, H69AR cells, doxorubicin co-treatment (AID 601)
Details: H69AR cells, CellTiter-Glo, 72 h; compound alone cytotoxicity; at 10 µM
Kindly state viability for each of the entries shown.
Numbers only, in %.

CCC(=O)Nc1ccc(F)c(Cl)c1 : 94.7
CCCc1cn(S(=O)(=O)c2ccc(OC)cc2OC)nc1N : 92.4

--- query ---
Qu. Which viability reading was recorded for the molecule Cn1cccc1Cc1nnc(SCC(=O)Nc2ccccc2F)n1-c1ccc(F)cc1 ?
Ans. 98.2

====

Assay: growth inhibitors of H69AR lung tumor, primary screen, human, duplicate replicates (AID 580);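 further: 100% = mean luminescence of untreated wells and 0% = no signal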
Details: H69AR lung tumor cells viability, ATP luminescence, 72 h; at 10 µM; stronger effect = lower value
Active and inactive are the calls of the source.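 How the source made its calls: active means viability at or under a set limit in both replicates, limit being median viability minus 3 SD (cut at about 48% in these data, passing the limit was not always enough); inconclusive means at or under the limit in just one replicate; inactive means at or above the limit in both replicates.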
Kindly state viability for each of the entries shown.

CN(Cc1cccs1)c1ncnc2sccc12 : 92.4% (inactive)

Give viability for each of the items listed below.
1. CCSc1nnc(NC(=O)CSc2nnc(Cc3cccn3C)n2-c2ccc(C)cc2)s1
2. CCOC(=O)c1nnc(-c2ccccc2)o1
3. Cc1cc2c(cc1C)-c1nnnn1C(C)(C)C2

Ans.
["88.8% (inactive)", "88.1% (inactive)", "91.9% (inactive)"]

====

Assay: reversal of MRP1-mediated doxorubicin resistance, pilot screen, H69AR cells, doxorubicin co-treatment (AID 601)
Conditions: H69AR cells + 2 uM doxorubicin, CellTiter-Glo, 72 h; at 10 µM; stronger effect = higher value
Assay metric: differential viability (reversal) (%)
Give bare numbers, in %.

Here are 2 compounds together with their reported answers.
CCNC(=O)CC1C(=O)N(c2ccc(F)cc2)C(=O)N1CCC(C)C (stereo not given) : 8.4
CCN1CCN(CCCNC(=O)C2c3ccccc3C(=O)N(C)C2c2ccc(OC)cc2)CC1 (stereo not given) : 16.8

For every item below, please supply its differential viability (reversal).
1. CC(C)CNC(=O)c1ccccc1NC(=O)c1ccc(CN2CCOCC2)cc1
2. COc1ccc(OC)c(C2=Nn3c(nnc3C3CCCCC3)SC2)c1

Ans.
[11.9, 0.07]

====

Biological target: Receptor tyrosine-protein kinase erbB-2 (Homo sapiens) (UniProt P04626)
Sequence (P04626 whole entry, looked up): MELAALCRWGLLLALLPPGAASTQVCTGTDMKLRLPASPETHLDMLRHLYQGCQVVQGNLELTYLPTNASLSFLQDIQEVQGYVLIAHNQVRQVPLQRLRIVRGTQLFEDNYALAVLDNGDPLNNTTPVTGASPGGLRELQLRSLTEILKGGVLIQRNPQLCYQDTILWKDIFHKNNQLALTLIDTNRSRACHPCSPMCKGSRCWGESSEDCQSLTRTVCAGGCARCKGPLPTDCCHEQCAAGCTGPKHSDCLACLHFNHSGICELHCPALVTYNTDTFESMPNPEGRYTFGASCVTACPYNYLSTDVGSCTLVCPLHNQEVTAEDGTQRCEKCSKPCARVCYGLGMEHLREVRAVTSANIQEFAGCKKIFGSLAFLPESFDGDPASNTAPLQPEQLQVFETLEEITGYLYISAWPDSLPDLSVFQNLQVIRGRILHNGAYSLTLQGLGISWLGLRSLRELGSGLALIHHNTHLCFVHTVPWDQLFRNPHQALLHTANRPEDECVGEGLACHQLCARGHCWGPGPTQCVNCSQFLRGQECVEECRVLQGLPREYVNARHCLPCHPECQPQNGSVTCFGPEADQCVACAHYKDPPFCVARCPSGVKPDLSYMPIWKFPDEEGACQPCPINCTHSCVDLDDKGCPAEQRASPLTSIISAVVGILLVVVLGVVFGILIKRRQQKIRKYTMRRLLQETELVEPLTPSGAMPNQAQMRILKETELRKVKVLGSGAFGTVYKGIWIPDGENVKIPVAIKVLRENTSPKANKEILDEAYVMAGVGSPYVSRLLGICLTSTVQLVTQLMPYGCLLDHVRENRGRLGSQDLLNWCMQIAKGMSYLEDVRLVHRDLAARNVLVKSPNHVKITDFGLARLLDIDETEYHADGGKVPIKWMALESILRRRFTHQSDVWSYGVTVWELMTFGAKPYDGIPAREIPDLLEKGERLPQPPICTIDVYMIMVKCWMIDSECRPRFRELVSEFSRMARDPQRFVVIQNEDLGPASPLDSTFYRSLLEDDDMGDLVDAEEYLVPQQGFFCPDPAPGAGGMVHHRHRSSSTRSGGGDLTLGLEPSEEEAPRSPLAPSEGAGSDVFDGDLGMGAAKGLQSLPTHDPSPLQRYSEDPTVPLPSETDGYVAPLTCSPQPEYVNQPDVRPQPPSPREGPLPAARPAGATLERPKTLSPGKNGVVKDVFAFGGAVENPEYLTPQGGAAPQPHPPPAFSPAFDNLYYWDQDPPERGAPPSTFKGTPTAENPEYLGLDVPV
Assay: reducers of endogenous Her2 protein level, primary screen, SKBR3 breast tumor cells, AlphaScreen, ATP viability (AID 461);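 further: lower value means less Her2 protein in the cells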
Settings: 18-24 h, at 10 µM, stronger effect = lower value
Could you please mark rule met for values of Her2 level below 90% and rule not met for values at or above it?

Some solved entries appear below for comparison.
N#Cc1c(N)n(CCNC(=O)c2cccs2)c2nc3ccccc3nc12 : rule met
CCCCCn1c(N2CCN(Cc3ccccc3)CC2)nc2c1c(=O)[nH]c(=O)n2C : rule met
Cc1c(C(=O)O)oc2ccc(S(=O)(=O)NCc3ccccc3)cc12 : rule not met
O=C(CNS(=O)(=O)c1ccc(Br)s1)N1CCCC1 : rule not met

Qu. Consider the compound CCOC(=O)N1CCC(NC(=O)CCc2c(C)nc3c(c(C)nn3C(C)(C)C)c2C)CC1 . Is its Her2 level strictly less than 90%?
Ans. rule met

Qu. In plain terms, does CCOc1ccc(CSC(CC(=O)O)C(=O)O)cc1 (stereo not given) come in under 90% for Her2 level?
Ans. rule met

Qu. Field: below-cutoff. Rule: recorded Her2 level strictly less than 90%. Subject: Cc1nc2ccccn2c1P(=O)(N1CCCCC1)N1CCCCC1
Ans. rule not met

Qu. Please determine if Cc1ccccc1NC(=O)C1Cc2ccccc2C(=O)O1 (stereo not given) is below 90% in terms of Her2 level.
Ans. rule not met

Qu. Hi there! Is Her2 level for CCOC(=O)N1CCN(S(=O)(=O)c2cc(Cl)c(OC)cc2Cl)CC1 below 90%, do you know?
Ans. rule not met

Qu. Just wondering, is Her2 level of CCOC(=O)CSC1=C(C#N)C(=O)NC(c2ccc(OC)c(OC)c2)S1 (stereo not given) below 90%?
Ans. rule not met

Qu. In the record for Cc1cc(NC(=O)COC(=O)C2COc3ccccc3O2)no1 (stereo not given) , is Her2 level less than 90%?
Ans. rule not met

Qu. Her2 level strictly < 90% for this compound? CCOC(=O)CSc1nc2ccccc2n2cnnc12
Ans. rule met

Qu. State whether 90% exceeds Her2 level recorded for O=c1cc(NCc2ccccc2)nc2n1CCCS2 .
Ans. rule not met
